Tested on: U2OS
Assay: Incucyte cell viability with U2OS; note: unitless GR value; below 1 slowed growth and below 0 cell loss
Assay type: toxicity, cell-based
Settings: human, 18 h, 10 µM, compound concentration 10 uM, replicate number 2
Numbered stars: 1 amine (or outer) side, 2 acyl side, 3 side chain; on linkers, the order of the positions; unused ones are H or OH. Bridge positions count the residues as written; N and C are the ends. Square brackets hold non-standard residues; d marks the D form. Peptide text beside a SMILES is read from it. I, II: the chains in the order shown. Hexamethylenediamine = C(CCCN[*:2])CCN[*:1]; Dip = N[C@H](C(=O)O)C(c1ccccc1)c1ccccc1; Chg = N[C@H](C(=O)O)C1CCCCC1; NMeA = CN[C@@H](C)C(=O)O
readout: Growth Rate

1. C=CC(=O)Nc1ccc2[nH]c(=O)n(C3CCN(Cc4ccc(-c5ccc6c(c5)NC(=O)CO6)cc4)CC3)c2c1    0.78
2. Cc1onc(O)c1CC(N)C(=O)O [(R,S)-AMPA]    0.94
3. CN[C@@H](C)C(=O)N[C@H](C(=O)N1CCC[C@H]1C(=O)N[C@H](C(=O)NCCCCCCNC(=O)[C@@H](NC(=O)[C@@H]1CCCN1C(=O)[C@@H](NC(=O)[C@H](C)NC)C1CCCCC1)C(c1ccccc1)c1ccccc1)C(c1ccccc1)c1ccccc1)C1CCCCC1 (I: H-[NMeA][Chg]P[Dip] / II: H-[NMeA][Chg]P[Dip]; linker I:C-II:C via Hexamethylenediamine)    -0.21
4. Cc1cc(-c2cc3ncccc3c(OC[C@H]3CCCNC3)n2)ccc1N(C)C.O=C(O)C(F)(F)F    0.19
5. COc1cc(-c2cc3ncccc3c(OC[C@H]3CNC(=O)C3)n2)cc(OC)c1OC1CCOCC1.O=C(O)C(F)(F)F    0.85
6. NC(=O)c1ccc(-c2nc(-c3ccc4c(c3)OCCO4)c(-c3ccccn3)[nH]2)cc1    0.86
